B1: SLC19A2 (parent)
chain: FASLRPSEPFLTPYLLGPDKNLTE

Variants of: B1
Assay: protein stability index of a GFP-peptide fusion (GPS, HEK-293T) (PSI 1-6); higher = more stable;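 further: lentivirally expressed fusions sorted by FACS into six bins by GFP to DsRed ratio, PSI derived from sequencing read proportions per bin multiplied by bin number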
Settings: c terminus: a fixed tail appended
If the reported protein stability index equals or exceeds 2, assign fulfilled. If not, assign not fulfilled.

[
  {
    "variantDescription": "N21W",
    "categoryLabel": "fulfilled"
  },
  {
    "variantDescription": "L22H",
    "categoryLabel": "fulfilled"
  },
  {
    "variantDescription": "L22Y",
    "categoryLabel": "not fulfilled"
  },
  {
    "variantDescription": "L11R",
    "categoryLabel": "not fulfilled"
  },
  {
    "variantDescription": "L11M",
    "categoryLabel": "fulfilled"
  },
  {
    "variantDescription": "E8Q",
    "categoryLabel": "not fulfilled"
  },
  {
    "variantDescription": "A2Q",
    "categoryLabel": "not fulfilled"
  },
  {
    "variantDescription": "P18H",
    "categoryLabel": "fulfilled"
  },
  {
    "variantDescription": "L11N",
    "categoryLabel": "not fulfilled"
  },
  {
    "variantDescription": "F10R",
    "categoryLabel": "fulfilled"
  },
  {
    "variantDescription": "P13L",
    "categoryLabel": "fulfilled"
  },
  {
    "variantDescription": "P9V",
    "categoryLabel": "fulfilled"
  },
  {
    "variantDescription": "K20D",
    "categoryLabel": "fulfilled"
  },
  {
    "variantDescription": "L22M",
    "categoryLabel": "not fulfilled"
  },
  {
    "variantDescription": "L16E",
    "categoryLabel": "fulfilled"
  },
  {
    "variantDescription": "Y14A",
    "categoryLabel": "fulfilled"
  },
  {
    "variantDescription": "L15V",
    "categoryLabel": "not fulfilled"
  },
  {
    "variantDescription": "S7E",
    "categoryLabel": "not fulfilled"
  },
  {
    "variantDescription": "P18S",
    "categoryLabel": "not fulfilled"
  },
  {
    "variantDescription": "P18K",
    "categoryLabel": "fulfilled"
  },
  {
    "variantDescription": "N21G",
    "categoryLabel": "not fulfilled"
  },
  {
    "variantDescription": "N21V",
    "categoryLabel": "fulfilled"
  },
  {
    "variantDescription": "A2C",
    "categoryLabel": "not fulfilled"
  },
  {
    "variantDescription": "P6H",
    "categoryLabel": "not fulfilled"
  },
  {
    "variantDescription": "T23V",
    "categoryLabel": "not fulfilled"
  },
  {
    "variantDescription": "G17V",
    "categoryLabel": "not fulfilled"
  },
  {
    "variantDescription": "L4I",
    "categoryLabel": "fulfilled"
  },
  {
    "variantDescription": "L15A",
    "categoryLabel": "not fulfilled"
  },
  {
    "variantDescription": "L22F",
    "categoryLabel": "not fulfilled"
  },
  {
    "variantDescription": "F10A",
    "categoryLabel": "fulfilled"
  },
  {
    "variantDescription": "A2E",
    "categoryLabel": "fulfilled"
  },
  {
    "variantDescription": "Y14W",
    "categoryLabel": "not fulfilled"
  },
  {
    "variantDescription": "F1Q",
    "categoryLabel": "fulfilled"
  },
  {
    "variantDescription": "S7P",
    "categoryLabel": "not fulfilled"
  },
  {
    "variantDescription": "E8Y",
    "categoryLabel": "not fulfilled"
  },
  {
    "variantDescription": "T12A",
    "categoryLabel": "not fulfilled"
  },
  {
    "variantDescription": "P13D",
    "categoryLabel": "fulfilled"
  },
  {
    "variantDescription": "P13H",
    "categoryLabel": "not fulfilled"
  },
  {
    "variantDescription": "F1V",
    "categoryLabel": "fulfilled"
  },
  {
    "variantDescription": "N21Y",
    "categoryLabel": "fulfilled"
  },
  {
    "variantDescription": "R5Q",
    "categoryLabel": "fulfilled"
  },
  {
    "variantDescription": "E24I",
    "categoryLabel": "fulfilled"
  },
  {
    "variantDescription": "T23K",
    "categoryLabel": "fulfilled"
  },
  {
    "variantDescription": "S7W",
    "categoryLabel": "fulfilled"
  },
  {
    "variantDescription": "P9N",
    "categoryLabel": "fulfilled"
  },
  {
    "variantDescription": "F10V",
    "categoryLabel": "fulfilled"
  },
  {
    "variantDescription": "N21H",
    "categoryLabel": "not fulfilled"
  },
  {
    "variantDescription": "G17H",
    "categoryLabel": "not fulfilled"
  },
  {
    "variantDescription": "Y14D",
    "categoryLabel": "fulfilled"
  },
  {
    "variantDescription": "K20V",
    "categoryLabel": "not fulfilled"
  },
  {
    "variantDescription": "P9K",
    "categoryLabel": "not fulfilled"
  },
  {
    "variantDescription": "F10D",
    "categoryLabel": "fulfilled"
  },
  {
    "variantDescription": "F1W",
    "categoryLabel": "fulfilled"
  },
  {
    "variantDescription": "T12K",
    "categoryLabel": "not fulfilled"
  },
  {
    "variantDescription": "L22R",
    "categoryLabel": "not fulfilled"
  },
  {
    "variantDescription": "P18A",
    "categoryLabel": "not fulfilled"
  },
  {
    "variantDescription": "R5G",
    "categoryLabel": "not fulfilled"
  },
  {
    "variantDescription": "F10T",
    "categoryLabel": "fulfilled"
  },
  {
    "variantDescription": "L4D",
    "categoryLabel": "fulfilled"
  },
  {
    "variantDescription": "L16G",
    "categoryLabel": "fulfilled"
  },
  {
    "variantDescription": "K20T",
    "categoryLabel": "not fulfilled"
  },
  {
    "variantDescription": "Y14L",
    "categoryLabel": "fulfilled"
  },
  {
    "variantDescription": "G17L",
    "categoryLabel": "fulfilled"
  },
  {
    "variantDescription": "R5Y",
    "categoryLabel": "fulfilled"
  },
  {
    "variantDescription": "E24F",
    "categoryLabel": "fulfilled"
  },
  {
    "variantDescription": "Y14I",
    "categoryLabel": "fulfilled"
  },
  {
    "variantDescription": "D19A",
    "categoryLabel": "not fulfilled"
  },
  {
    "variantDescription": "E8H",
    "categoryLabel": "not fulfilled"
  },
  {
    "variantDescription": "E8W",
    "categoryLabel": "fulfilled"
  },
  {
    "variantDescription": "L15M",
    "categoryLabel": "fulfilled"
  },
  {
    "variantDescription": "K20F",
    "categoryLabel": "not fulfilled"
  },
  {
    "variantDescription": "P6K",
    "categoryLabel": "fulfilled"
  },
  {
    "variantDescription": "L15S",
    "categoryLabel": "not fulfilled"
  },
  {
    "variantDescription": "L16C",
    "categoryLabel": "fulfilled"
  },
  {
    "variantDescription": "P18R",
    "categoryLabel": "not fulfilled"
  },
  {
    "variantDescription": "G17F",
    "categoryLabel": "fulfilled"
  },
  {
    "variantDescription": "P13W",
    "categoryLabel": "not fulfilled"
  },
  {
    "variantDescription": "R5W",
    "categoryLabel": "fulfilled"
  },
  {
    "variantDescription": "R5P",
    "categoryLabel": "fulfilled"
  },
  {
    "variantDescription": "D19P",
    "categoryLabel": "not fulfilled"
  }
]

The reported measurements were obtained from the supplement of paper PMC10567573.
